Where do the numbers come from? From patent US20240197685A1.

- experimental.target: human recombinant AT2 receptor (Homo sapiens, UniProt P50052)
- Construct: Eurofins protocol ITEM26
- Sequence (P50052 whole entry): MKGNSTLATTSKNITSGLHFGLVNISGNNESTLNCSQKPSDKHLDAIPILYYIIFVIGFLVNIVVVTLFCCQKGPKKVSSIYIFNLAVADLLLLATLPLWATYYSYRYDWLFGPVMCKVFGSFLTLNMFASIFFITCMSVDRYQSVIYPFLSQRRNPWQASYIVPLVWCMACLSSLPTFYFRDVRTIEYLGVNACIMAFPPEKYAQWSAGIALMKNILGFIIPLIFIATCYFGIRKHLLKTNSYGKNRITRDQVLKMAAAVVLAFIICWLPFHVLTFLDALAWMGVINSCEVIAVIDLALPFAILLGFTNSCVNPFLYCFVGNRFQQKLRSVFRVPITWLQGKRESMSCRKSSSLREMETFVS
- procedure.text: Binding to AT2 receptor, radiometric scintillation assay (Eurofins)
- stated.conditions: single run; 1, 10, 100 and 1000 nM; ligand 125I CGP 42112A; read-out: AT2 GraFit IC50
readout.name: pIC50
One number for each entry, as −log10 of the molar value.

CC(C)Cc1cc(-c2ccc(Cn3ccnc3C(C)(C)C)c(F)c2)c(S(=O)(=O)NC(=O)NCc2ccccn2)s1    9.36

For each of the compounds below, state pIC50.
1. CC(C)Cc1cc(-c2ccc(Cn3ccnc3C(C)(C)C)cc2)c(S(=O)(=O)NC(=O)NCc2cccs2)s1
2. CC(C)Cc1cc(-c2ccc(Cn3ccnc3C(C)(C)C)c(F)c2)c(S(=O)(=O)NC(=O)NCc2cccs2)s1

OUTPUT:
[8.60, 8.30]

* * *

- experimental.target: CYP2D6 (Homo sapiens)
- Construct: tissue Eurofins protocol ITEMG232; host or cells: human liver microsomes
- Sequence (P10635 whole entry): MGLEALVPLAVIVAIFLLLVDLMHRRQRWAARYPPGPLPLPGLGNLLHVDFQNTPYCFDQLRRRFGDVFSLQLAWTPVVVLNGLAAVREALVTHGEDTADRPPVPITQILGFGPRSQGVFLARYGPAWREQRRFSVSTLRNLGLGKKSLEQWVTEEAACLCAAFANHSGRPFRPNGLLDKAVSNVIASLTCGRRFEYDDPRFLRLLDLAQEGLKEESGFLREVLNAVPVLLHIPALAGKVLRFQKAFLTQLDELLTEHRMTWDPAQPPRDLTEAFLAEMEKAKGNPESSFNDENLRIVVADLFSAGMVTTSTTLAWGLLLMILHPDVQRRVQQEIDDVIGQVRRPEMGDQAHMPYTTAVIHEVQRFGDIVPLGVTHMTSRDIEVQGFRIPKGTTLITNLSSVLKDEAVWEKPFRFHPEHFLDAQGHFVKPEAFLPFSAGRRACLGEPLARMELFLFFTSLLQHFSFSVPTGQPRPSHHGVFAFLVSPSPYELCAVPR
- procedure.text: CYP inhibition, human liver microsomes
- Assay type: in vitro ADME
- stated.conditions: probe dextromethorphan, substrate dextromethorphan, read-out: CYP2D6 Inh %
Rule: inhibition at 10 µM of 20% or more gives Satisfied; anything lower gives Not satisfied.

INPUT: For this molecule, is measured inhibition at 10 µM 20% or higher? CC(C)Cc1cc(-c2ccc(Cn3ccnc3C(C)(C)C)c(F)c2)c(S(=O)(=O)NC(=O)NCc2cccs2)s1 [Example 7]
OUTPUT: Not satisfied

INPUT: For this molecule, is measured inhibition at 10 µM 20% or higher? CC(C)Cc1cc(-c2ccc(Cn3ccnc3C(C)(C)C)cc2)c(S(=O)(=O)NC(=O)NCc2ccco2)s1 [Example 1]
OUTPUT: Not satisfied

INPUT: For this molecule, is measured inhibition at 10 µM 20% or higher? CC(C)Cc1cc(-c2ccc(Cn3ccnc3C(C)(C)C)c(F)c2)c(S(=O)(=O)NC(=O)NCc2ccccn2)s1 [Example 5]
OUTPUT: Satisfied

INPUT: For this molecule, is measured inhibition at 10 µM 20% or higher? CC(C)Cc1cc(-c2ccc(Cn3ccnc3C(C)(C)C)cc2)c(S(=O)(=O)NC(=O)NCc2ccccn2)s1 [Example 4]
OUTPUT: Satisfied

INPUT: For this molecule, is measured inhibition at 10 µM 20% or higher? CCNC(=O)NS(=O)(=O)c1sc(CC(C)C)cc1-c1ccc(Cn2ccnc2C(C)(C)C)c(F)c1 [Example 6]
OUTPUT: Not satisfied

INPUT: For this molecule, is measured inhibition at 10 µM 20% or higher? CC(C)Cc1cc(-c2ccc(Cn3ccnc3C(C)(C)C)cc2)c(S(=O)(=O)NC(=O)NCc2cccs2)s1 [Example 2]
OUTPUT: Satisfied

* * *

Consider the following compounds; for each one, report its inhibition at 10 µM.
- experimental.target: CYP3A4 (Homo sapiens)
- Construct: tissue Eurofins protocol ITEMG232; host or cells: human liver microsomes
- Sequence (P08684 whole entry): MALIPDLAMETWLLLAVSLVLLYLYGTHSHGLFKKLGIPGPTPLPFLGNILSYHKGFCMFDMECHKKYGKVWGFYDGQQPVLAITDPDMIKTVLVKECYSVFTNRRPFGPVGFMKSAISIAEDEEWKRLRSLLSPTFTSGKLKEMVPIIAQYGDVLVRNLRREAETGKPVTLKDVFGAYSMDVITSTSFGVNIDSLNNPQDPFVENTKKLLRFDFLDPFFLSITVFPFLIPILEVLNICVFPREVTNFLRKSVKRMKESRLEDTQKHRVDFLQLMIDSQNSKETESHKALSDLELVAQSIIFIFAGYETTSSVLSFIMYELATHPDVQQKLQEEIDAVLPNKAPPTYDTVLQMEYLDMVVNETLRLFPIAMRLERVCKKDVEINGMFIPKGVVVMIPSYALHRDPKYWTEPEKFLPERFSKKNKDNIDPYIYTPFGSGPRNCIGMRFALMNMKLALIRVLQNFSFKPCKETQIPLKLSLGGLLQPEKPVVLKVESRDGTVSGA
- procedure.text: CYP inhibition, human liver microsomes
- Type: in vitro ADME
- stated.conditions: probe midazolam; 10 μM, substrate midazolam, human liver microsomes; read-out: CYP3A4 midazolam Inh %
One number for each entry, in %.

Worked examples, 5 compounds total:
CC(C)Cc1cc(-c2ccc(Cn3ccnc3C(C)(C)C)cc2)c(S(=O)(=O)NC(=O)NCc2cccs2)s1 [Example 2]    40.9
CCNC(=O)NS(=O)(=O)c1sc(CC(C)C)cc1-c1ccc(Cn2ccnc2C(C)(C)C)c(F)c1 [Example 6]    23.8
CC(C)Cc1cc(-c2ccc(Cn3ccnc3C(C)(C)C)c(F)c2)c(S(=O)(=O)NC(=O)NCc2ccccn2)s1 [Example 5]    43
CC(C)Cc1cc(-c2ccc(Cn3ccnc3C(C)(C)C)cc2)c(S(=O)(=O)NC(=O)NCc2ccccn2)s1 [Example 4]    33.7
CC(C)Cc1cc(-c2ccc(Cn3ccnc3C(C)(C)C)c(F)c2)c(S(=O)(=O)NC(=O)NCc2cccs2)s1 [Example 7]    52.3

Here is the next item to consider.
INPUT: Returns the measured inhibition at 10 µM for the input compound. Input: CC(C)Cc1cc(-c2ccc(Cn3ccnc3C(C)(C)C)cc2)c(S(=O)(=O)NC(=O)NCc2ccco2)s1 [Example 1]
OUTPUT: 11.6

* * *

- experimental.target: CYP2C8 (Homo sapiens, UniProt P10632)
- Construct: tissue Eurofins protocol ITEMG232; host or cells: human liver microsomes
- Sequence (P10632 whole entry): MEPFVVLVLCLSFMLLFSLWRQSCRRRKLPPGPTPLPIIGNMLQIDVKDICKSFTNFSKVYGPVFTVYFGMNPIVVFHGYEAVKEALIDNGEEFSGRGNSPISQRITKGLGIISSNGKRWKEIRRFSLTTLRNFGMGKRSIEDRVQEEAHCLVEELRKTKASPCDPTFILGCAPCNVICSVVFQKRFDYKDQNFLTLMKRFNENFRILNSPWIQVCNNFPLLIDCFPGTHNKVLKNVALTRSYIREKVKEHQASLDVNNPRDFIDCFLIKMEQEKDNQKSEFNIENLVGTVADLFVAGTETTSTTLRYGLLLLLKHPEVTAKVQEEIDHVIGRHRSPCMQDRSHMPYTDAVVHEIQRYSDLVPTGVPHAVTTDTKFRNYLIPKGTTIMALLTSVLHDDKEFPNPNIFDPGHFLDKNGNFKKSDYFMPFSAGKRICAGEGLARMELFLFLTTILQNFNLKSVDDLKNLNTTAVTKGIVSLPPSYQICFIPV
- procedure.text: CYP inhibition, human liver microsomes
- Assay type: in vitro ADME
- stated.conditions: probe paclitaxel and amodiaquine, substrates paclitaxel and amodiaquine, read-out: CYP2C8 Inh %
Consider the following molecules; for each one, report its inhibition at 10 µM.
Answers are plain numbers, in %.

Worked examples, 3 molecules total:
CC(C)Cc1cc(-c2ccc(Cn3ccnc3C(C)(C)C)c(F)c2)c(S(=O)(=O)NC(=O)NCc2ccccn2)s1    78.3
CC(C)Cc1cc(-c2ccc(Cn3ccnc3C(C)(C)C)cc2)c(S(=O)(=O)NC(=O)NCc2ccco2)s1    77.8
CCNC(=O)NS(=O)(=O)c1sc(CC(C)C)cc1-c1ccc(Cn2ccnc2C(C)(C)C)c(F)c1    77.6

For each of the molecules below, state inhibition at 10 µM.
1. CC(C)Cc1cc(-c2ccc(Cn3ccnc3C(C)(C)C)c(F)c2)c(S(=O)(=O)NC(=O)NCc2cccs2)s1
2. CC(C)Cc1cc(-c2ccc(Cn3ccnc3C(C)(C)C)cc2)c(S(=O)(=O)NC(=O)NCc2cccs2)s1
3. CC(C)Cc1cc(-c2ccc(Cn3ccnc3C(C)(C)C)cc2)c(S(=O)(=O)NC(=O)NCc2ccccn2)s1

OUTPUT:
1. 79.9
2. 81.8
3. 79.3

* * *

- procedure.text: Metabolic stability in pooled human liver microsomes
- Format: in vitro ADME
- stated.conditions: human, pooled human liver microsomes, human liver microsomes 0.5 mg/mL, with 1 mM NADPH, test compound 1 μM, 37° C.; read-out: T1/2, + NaDPH
readout.name: half-life at 1 μM

Worked examples, 5 molecules total:
CC(C)Cc1cc(-c2ccc(Cn3ccnc3C(C)(C)C)c(F)c2)c(S(=O)(=O)NC(=O)NCc2ccccn2)s1 [Example 5]    > 1 h
COCCNC(=O)NS(=O)(=O)c1sc(CC(C)C)cc1-c1ccc(Cn2ccnc2C(C)(C)C)cc1 [Example 3]    > 1 h
CC(C)Cc1cc(-c2ccc(Cn3ccnc3C(C)(C)C)cc2)c(S(=O)(=O)NC(=O)NCc2ccco2)s1 [Example 1]    > 1 h
CC(C)Cc1cc(-c2ccc(Cn3ccnc3C(C)(C)C)c(F)c2)c(S(=O)(=O)NC(=O)NCc2cccs2)s1 [Example 7]    0.383 h
CC(C)Cc1cc(-c2ccc(Cn3ccnc3C(C)(C)C)cc2)c(S(=O)(=O)NC(=O)NCc2ccccn2)s1 [Example 4]    > 1 h

For each of the molecules below, state half-life at 1 μM.
1. CCNC(=O)NS(=O)(=O)c1sc(CC(C)C)cc1-c1ccc(Cn2ccnc2C(C)(C)C)c(F)c1 [Example 6]
2. CC(C)Cc1cc(-c2ccc(Cn3ccnc3C(C)(C)C)cc2)c(S(=O)(=O)NC(=O)NCc2cccs2)s1 [Example 2]

OUTPUT:
1. > 1 h
2. 0.533 h

* * *

Consider the following molecules; for each one, report its inhibition at 10 µM.
- experimental.target: CYP1A (Homo sapiens, UniProt P05177)
- Construct: tissue Eurofins protocol ITEMG232; host or cells: human liver microsomes
- Sequence (P05177 2-516 limits assumed): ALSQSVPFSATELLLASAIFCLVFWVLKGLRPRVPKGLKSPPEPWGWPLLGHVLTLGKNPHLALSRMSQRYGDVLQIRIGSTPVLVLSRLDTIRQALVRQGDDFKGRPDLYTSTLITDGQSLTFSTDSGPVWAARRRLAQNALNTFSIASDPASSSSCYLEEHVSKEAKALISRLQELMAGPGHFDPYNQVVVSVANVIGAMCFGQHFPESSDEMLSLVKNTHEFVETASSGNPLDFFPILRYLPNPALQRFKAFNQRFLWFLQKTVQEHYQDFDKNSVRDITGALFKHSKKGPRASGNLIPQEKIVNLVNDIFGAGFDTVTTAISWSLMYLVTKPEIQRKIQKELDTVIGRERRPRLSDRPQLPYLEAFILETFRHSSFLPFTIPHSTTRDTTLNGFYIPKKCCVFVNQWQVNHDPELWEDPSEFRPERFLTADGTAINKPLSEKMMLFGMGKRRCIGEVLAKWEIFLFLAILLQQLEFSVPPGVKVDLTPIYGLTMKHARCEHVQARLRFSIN
- procedure.text: CYP inhibition, human liver microsomes
- Assay type: in vitro ADME
- stated.conditions: probe phenacetin, substrate phenacetin, read-out: CYP1A Inh %
Answers are plain numbers, in %.

Worked examples, 5 molecules total:
CC(C)Cc1cc(-c2ccc(Cn3ccnc3C(C)(C)C)c(F)c2)c(S(=O)(=O)NC(=O)NCc2ccccn2)s1    34.1
CC(C)Cc1cc(-c2ccc(Cn3ccnc3C(C)(C)C)cc2)c(S(=O)(=O)NC(=O)NCc2cccs2)s1    -1.8
CC(C)Cc1cc(-c2ccc(Cn3ccnc3C(C)(C)C)c(F)c2)c(S(=O)(=O)NC(=O)NCc2cccs2)s1    20.7
CC(C)Cc1cc(-c2ccc(Cn3ccnc3C(C)(C)C)cc2)c(S(=O)(=O)NC(=O)NCc2ccccn2)s1    -0.5
CCNC(=O)NS(=O)(=O)c1sc(CC(C)C)cc1-c1ccc(Cn2ccnc2C(C)(C)C)c(F)c1    15.8

Here is the next item to consider.
INPUT: Returns the measured inhibition at 10 µM for the input molecule. Input: CC(C)Cc1cc(-c2ccc(Cn3ccnc3C(C)(C)C)cc2)c(S(=O)(=O)NC(=O)NCc2ccco2)s1
OUTPUT: -13.2

* * *

- experimental.target: human recombinant AT1 receptor (Homo sapiens)
- Construct: Eurofins protocol ITEM24
- Sequence (P30556 whole entry): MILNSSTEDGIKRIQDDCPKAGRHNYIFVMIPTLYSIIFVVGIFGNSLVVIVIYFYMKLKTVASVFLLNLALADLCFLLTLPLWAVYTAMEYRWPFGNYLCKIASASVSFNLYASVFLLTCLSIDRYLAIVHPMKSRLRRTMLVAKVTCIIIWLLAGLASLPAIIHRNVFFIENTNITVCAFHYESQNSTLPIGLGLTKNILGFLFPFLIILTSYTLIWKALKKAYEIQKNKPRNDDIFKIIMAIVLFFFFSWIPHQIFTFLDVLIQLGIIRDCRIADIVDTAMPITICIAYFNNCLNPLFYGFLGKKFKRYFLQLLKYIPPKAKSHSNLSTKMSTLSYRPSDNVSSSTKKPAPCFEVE
- procedure.text: Binding to AT1 receptor, radiometric scintillation assay (Eurofins)
- stated.conditions: single run; 1 and 10 μM; ligand 125I(sar1,Ile8)-AT-II
Consider the following compounds; for each one, report its pIC50.
Answers are plain numbers, as −log10 of the molar value.

Worked examples, 2 compounds total:
CC(C)Cc1cc(-c2ccc(Cn3ccnc3C(C)(C)C)cc2)c(S(=O)(=O)NC(=O)NCc2cccs2)s1    5.70
CC(C)Cc1cc(-c2ccc(Cn3ccnc3C(C)(C)C)c(F)c2)c(S(=O)(=O)NC(=O)NCc2ccccn2)s1    5.74

For each of the compounds below, state pIC50.
1. CC(C)Cc1cc(-c2ccc(Cn3ccnc3C(C)(C)C)cc2)c(S(=O)(=O)NC(=O)NCc2ccco2)s1
2. CC(C)Cc1cc(-c2ccc(Cn3ccnc3C(C)(C)C)c(F)c2)c(S(=O)(=O)NC(=O)NCc2cccs2)s1
3. CC(C)Cc1cc(-c2ccc(Cn3ccnc3C(C)(C)C)cc2)c(S(=O)(=O)NC(=O)NCc2ccccn2)s1

OUTPUT:
[5.52, 5.51, 5.52]
